Sourced from patent US5220042A

Catalogue of inhibition at 3 µM values
- Tested system: 5-lipoxygenase (Cavia porcellus)
- Construct: endogenous in cells; host or cells: guinea pig (Hartley strain) casein-elicited peritoneal exudate cells, intact cell suspension
- Sequence (A0A286X958 1-674): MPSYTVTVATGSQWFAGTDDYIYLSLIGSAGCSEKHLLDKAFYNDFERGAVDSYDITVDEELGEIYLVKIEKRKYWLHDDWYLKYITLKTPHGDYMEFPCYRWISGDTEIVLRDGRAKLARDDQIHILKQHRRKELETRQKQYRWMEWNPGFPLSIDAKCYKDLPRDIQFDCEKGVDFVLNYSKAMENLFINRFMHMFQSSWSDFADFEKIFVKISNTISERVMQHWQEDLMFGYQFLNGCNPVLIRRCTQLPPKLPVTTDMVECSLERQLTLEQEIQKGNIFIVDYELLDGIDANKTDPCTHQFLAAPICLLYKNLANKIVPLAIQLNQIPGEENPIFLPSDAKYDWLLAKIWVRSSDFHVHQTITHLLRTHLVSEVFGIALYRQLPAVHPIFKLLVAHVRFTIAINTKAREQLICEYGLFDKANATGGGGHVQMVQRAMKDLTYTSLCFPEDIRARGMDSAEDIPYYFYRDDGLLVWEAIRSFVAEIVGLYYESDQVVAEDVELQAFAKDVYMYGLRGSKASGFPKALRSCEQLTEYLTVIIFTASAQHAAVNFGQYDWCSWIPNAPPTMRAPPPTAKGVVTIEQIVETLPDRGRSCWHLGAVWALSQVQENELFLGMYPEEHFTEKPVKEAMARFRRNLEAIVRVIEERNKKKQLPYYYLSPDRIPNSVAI
- Test: 5-Lipoxygenase inhibitory activity (conversion of 14C-arachidonic acid to 5-HETE) in guinea pig peritoneal exudate cells
- Assay type: cell-based, guinea pig (Hartley strain)
- Condition: concentration 3 × 10^-6 M; read-out: inhibition ratio (%) of 5-lipoxygenase activity
Value type: inhibition at 3 µM (%)

CCCCCCCCCCCCCC1=C(OC)C(=O)C=C(OC)C1=O [Test Compound No. 8] ... 40
CCCC/C=C\CCCCCCCC1=C(OC)C(=O)C=C(OC)C1=O [Test Compound No. 34] ... 73
COC1=CC(=O)C(O)=C(CCCCCCCC2OC2CCCCCCCC2=C(O)C(=O)C=C(OC)C2=O)C1=O (centres unmarked) [Test Compound No. 4] ... 96
CCCC/C=C\CCCCCCCCCC1=CC(=O)C=C(OC)C1=O [Test Compound No. 1] ... 13
CCCCC#CCCCCCCCCCC1=C(OC)C(=O)C=C(OC)C1=O [Test Compound No. 32] ... 80
CCCCC#CCCCCCCCC1=C(OC)C(=O)C=C(OC)C1=O [compound 31] ... 91
CCCCC#CCCCCCC1=C(OC)C(=O)C=C(OC)C1=O [compound 30] ... 92
COC1=CC(=O)C(O)=C(CCCCCCC/C=C\CCCCCCCc2cc(O)cc(O)c2)C1=O [Test Compound No. 7] ... 80
COC1=CC(=O)C(O)=C(CCCCCCC/C=C\CCCCCCCC2=C(O)C(=O)C(C)=C(OC)C2=O)C1=O [Test Compound No. 3] ... 95
CCCC/C=C\CCCCCC1=C(OC)C(=O)C=C(OC)C1=O [Test Compound No. 33] ... 91
COC1=CC(=O)C(OC)=C(CCCCCCCC2OC2CCCCCCCC2=C(OC)C(=O)C=C(OC)C2=O)C1=O (centres unmarked) [Test Compound No. 5] ... 86

###

- System: SRS-A release from lung fragments
- Test: Inhibition of SRS-A release from sensitized guinea pig lung fragments
- Format: cell-based, guinea pig (Hartley strain)
- Condition: Cavia porcellus, Table 2B, 1 μM; read-out: Inhibitory activities on SRS-A (%)
Value type: inhibition at 1 µM (%)

COC1=CC(=O)C(OC)=C(CC2=C(OC)C(=O)C=C(OC)C2=O)C1=O ... 37.6
CC1=C(C)C(=O)C(CCCCCC2=C(C)C(=O)C(C)=C(C)C2=O)=C(C)C1=O ... 13.2
COC1=C(CCCCCC2=C(OC)C(=O)C(SC)=C(OC)C2=O)C(=O)C(OC)=C(SC)C1=O ... 28.1
COC1=C(CCO)C(=O)C(OC)=C(CCCCCC2=C(OC)C(=O)C(OC)=C(OC)C2=O)C1=O ... 37.6
COC1=CC(=O)C(O)=C(CCCCCC2=C(O)C(=O)C=C(OC)C2=O)C1=O ... 11.8
CCOC(=O)C1=C(OC)C(=O)C(CCCCCC2=C(OC)C(=O)C(C(=O)OCC)=C(OC)C2=O)=C(OC)C1=O ... 18.2
COC1=CC(=O)C(OC)=C(CCCSSCCCC2=C(OC)C(=O)C=C(OC)C2=O)C1=O ... 30.5
COC1=CC(=O)C(OC)=C(CCCCCC2=C(OC)C(=O)C(SC)=C(OC)C2=O)C1=O ... 23.2
COC1=CC(=O)C(OC)=C(CCCOCCC2=C(OC)C(=O)C=C(OC)C2=O)C1=O ... 52.4
